# assay-target: Fms (h) (Homo sapiens, UniProt P07333)
# Sequence (P07333 20-972): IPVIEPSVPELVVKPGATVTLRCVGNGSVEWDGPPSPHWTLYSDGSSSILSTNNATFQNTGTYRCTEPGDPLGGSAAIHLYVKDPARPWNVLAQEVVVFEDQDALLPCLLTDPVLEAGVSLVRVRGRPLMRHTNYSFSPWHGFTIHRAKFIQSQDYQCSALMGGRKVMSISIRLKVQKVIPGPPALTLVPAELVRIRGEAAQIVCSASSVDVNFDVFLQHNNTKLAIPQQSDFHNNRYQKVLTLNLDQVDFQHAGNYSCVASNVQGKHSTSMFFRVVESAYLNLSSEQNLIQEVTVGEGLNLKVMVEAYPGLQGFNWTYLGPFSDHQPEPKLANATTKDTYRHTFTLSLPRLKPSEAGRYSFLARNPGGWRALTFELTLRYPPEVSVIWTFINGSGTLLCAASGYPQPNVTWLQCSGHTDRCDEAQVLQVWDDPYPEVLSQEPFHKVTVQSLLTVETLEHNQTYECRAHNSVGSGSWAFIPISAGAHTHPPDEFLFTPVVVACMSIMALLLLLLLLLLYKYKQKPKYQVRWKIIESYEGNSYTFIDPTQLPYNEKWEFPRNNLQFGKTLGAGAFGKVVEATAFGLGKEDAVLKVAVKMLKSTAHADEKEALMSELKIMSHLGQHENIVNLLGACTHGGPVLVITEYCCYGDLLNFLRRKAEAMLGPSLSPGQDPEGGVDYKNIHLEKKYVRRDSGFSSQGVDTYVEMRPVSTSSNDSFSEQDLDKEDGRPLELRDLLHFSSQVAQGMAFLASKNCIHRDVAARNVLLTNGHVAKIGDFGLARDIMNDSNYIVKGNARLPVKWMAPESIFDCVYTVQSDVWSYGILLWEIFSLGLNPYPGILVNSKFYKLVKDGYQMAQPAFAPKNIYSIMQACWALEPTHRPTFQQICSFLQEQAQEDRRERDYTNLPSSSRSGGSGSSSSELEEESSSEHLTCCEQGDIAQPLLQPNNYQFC
# protocol-summary: Kinase activity profiling service (Millipore)
# Format: biochemical
# condition-set: read-out: Kinase inhibitory activity (IC50, uM) Fms (h)
recorded-endpoint: IC50 (µM)

>>> measurement("Cc1ccc(NC(=O)Nc2ccc(Cl)c(C(F)(F)F)c2)cc1-c1ccc2c(C(=O)NCCN3CCOCC3)n[nH]c2c1")
141

* * *

# assay-target: KDR (h) (Homo sapiens)
# Sequence (P35968 20-1356): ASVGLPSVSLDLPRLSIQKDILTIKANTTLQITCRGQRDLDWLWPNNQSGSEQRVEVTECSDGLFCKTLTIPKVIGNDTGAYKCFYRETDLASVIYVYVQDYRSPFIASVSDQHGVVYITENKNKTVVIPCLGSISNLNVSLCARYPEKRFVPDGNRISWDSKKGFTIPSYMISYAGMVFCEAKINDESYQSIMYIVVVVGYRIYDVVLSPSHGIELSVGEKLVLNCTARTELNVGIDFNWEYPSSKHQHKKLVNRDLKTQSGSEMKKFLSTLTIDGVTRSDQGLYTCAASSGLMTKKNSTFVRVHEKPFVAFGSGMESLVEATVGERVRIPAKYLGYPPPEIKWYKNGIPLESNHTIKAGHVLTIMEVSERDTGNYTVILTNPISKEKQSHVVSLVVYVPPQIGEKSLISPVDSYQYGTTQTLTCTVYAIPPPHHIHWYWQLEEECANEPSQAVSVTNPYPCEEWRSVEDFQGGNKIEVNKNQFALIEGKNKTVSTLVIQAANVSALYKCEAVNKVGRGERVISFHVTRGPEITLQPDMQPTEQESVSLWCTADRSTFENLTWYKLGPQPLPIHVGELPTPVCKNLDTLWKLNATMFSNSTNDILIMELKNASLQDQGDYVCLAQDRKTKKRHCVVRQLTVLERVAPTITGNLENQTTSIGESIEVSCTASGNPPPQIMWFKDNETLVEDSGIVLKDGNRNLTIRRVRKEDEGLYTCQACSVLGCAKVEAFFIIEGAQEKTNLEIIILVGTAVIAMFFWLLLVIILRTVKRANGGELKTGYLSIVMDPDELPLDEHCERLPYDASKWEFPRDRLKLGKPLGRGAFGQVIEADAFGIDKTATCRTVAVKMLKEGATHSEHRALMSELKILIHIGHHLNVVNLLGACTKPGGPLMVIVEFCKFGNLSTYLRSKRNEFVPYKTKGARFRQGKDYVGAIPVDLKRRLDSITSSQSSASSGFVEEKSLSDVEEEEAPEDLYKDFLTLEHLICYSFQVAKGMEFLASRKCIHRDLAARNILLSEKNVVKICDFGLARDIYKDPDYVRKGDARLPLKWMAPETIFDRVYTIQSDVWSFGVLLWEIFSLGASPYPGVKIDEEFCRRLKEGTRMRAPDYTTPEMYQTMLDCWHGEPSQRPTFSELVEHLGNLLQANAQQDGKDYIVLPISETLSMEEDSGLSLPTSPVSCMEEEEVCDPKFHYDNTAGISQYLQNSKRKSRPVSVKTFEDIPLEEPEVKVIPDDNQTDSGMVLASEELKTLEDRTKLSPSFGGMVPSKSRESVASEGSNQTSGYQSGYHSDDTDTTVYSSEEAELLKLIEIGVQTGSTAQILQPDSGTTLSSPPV
# protocol-summary: Kinase activity profiling service (Millipore)
# Type: biochemical
# condition-set: read-out: Kinase inhibitory activity (IC50, uM) KDR (h)
recorded-endpoint: IC50 (µM)

>>> measurement("Cc1ccc(NC(=O)Nc2ccc(Cl)c(C(F)(F)F)c2)cc1-c1ccc2c(C(=O)NCCN3CCOCC3)n[nH]c2c1")
332
